Target: T1, IL-23 (HEK293E-derived) (human, UniProt P29460 23-328; Q9NPF7 20-189)
T1 sequence 1: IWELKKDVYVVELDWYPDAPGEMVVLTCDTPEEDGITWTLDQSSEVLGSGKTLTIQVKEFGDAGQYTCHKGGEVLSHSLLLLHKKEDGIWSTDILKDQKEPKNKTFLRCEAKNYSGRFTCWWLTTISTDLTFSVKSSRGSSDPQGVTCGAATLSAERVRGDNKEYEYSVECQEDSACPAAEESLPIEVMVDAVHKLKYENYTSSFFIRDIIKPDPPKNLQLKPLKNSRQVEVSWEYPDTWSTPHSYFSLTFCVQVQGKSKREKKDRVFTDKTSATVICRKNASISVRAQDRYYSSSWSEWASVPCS
T1 sequence 2: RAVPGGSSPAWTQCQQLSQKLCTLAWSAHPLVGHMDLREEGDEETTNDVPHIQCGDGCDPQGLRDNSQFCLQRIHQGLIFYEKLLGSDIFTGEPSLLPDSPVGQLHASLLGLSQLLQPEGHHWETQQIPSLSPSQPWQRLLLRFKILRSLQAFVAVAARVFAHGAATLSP
Experiment: SPR (Biacore), antibody supernatant captured on Protein A, IL-23 at 5 ug/ml as analyte
measure_name: koff (s⁻¹)
The figure you give is taken to be in s⁻¹; do not add the unit.

INPUT: Given the binder 8-23 (antibody, human IgG1, kappa, V domains shown, Humanized form of E11E7; also called humanized antibody 8-23) VH: QVQLQESGPGLVKPSETLSLTCTVSGFSLISYNVHWIRQPPGKGLEWIGVIWTGGSTDYNPSLKSRVTISRDTSKNQFSLKLSSVTAADTAVYYCARDKYGLFPGYFDYWGQGTLVTVSS VL: DIVMTQTPLSLPVTPGEPASISCKPSQSLLSSGNRKNYLAWYLQKPGQSPQLLIYYASTRQSGVPDRFSGSGSGTDFTLKISRVEAEDVGVYYCLQHFNYPWTFGQGTKLEIKR , what is its reported koff?
OUTPUT: 0.000285

INPUT: Given the binder 1-4 (antibody, human IgG1, kappa, V domains shown, Humanized form of E11E7; also called humanized antibody 1-4) VH: EVQLQQWGAGLLKPSETLSLTCAVYGGSFSSYNVHWIRQPPGKGLEWIGVIWTGGSTDYNSVLKSRVTISRDTSKNQFSLKLSSVTAADTAVYYCARDKYGLFPGYFDYWGQGTLVTVSS VL: EIVLTQSPATLSLSPGERATLSCKPSQSLLSSGNRKNYLAWYQQKPGQAPRLLIYYASTRQSGIPDRFSGSGSGTDFTLTISRLEPEDFAVYYCLQHFNYPWTFGGGTKVEIKR , what is its reported koff?
OUTPUT: 0.000616

INPUT: Given the binder 21-4 (antibody, human IgG1, kappa, V domains shown, Humanized form of E11E7; also called humanized antibody 21-4) VH: EVQLQQWGAGLLKPSETLSLTCAVYGFSLISYNVHWIRQPPGKGLEWIGVIWTGGSTDYNSVLKSRVTISRDTSKNQFSLKLSSVTAADTAVYYCARDKYGLFPGYFDYWGQGTLVTVSS VL: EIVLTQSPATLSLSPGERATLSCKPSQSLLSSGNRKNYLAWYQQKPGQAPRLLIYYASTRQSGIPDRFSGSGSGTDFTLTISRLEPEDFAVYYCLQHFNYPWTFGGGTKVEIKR , what is its reported koff?
OUTPUT: 0.000191
